FYI, the data here is from patent US20260049072A1.

System: AsPC-1 cells
Assay: Non-anchorage-dependent cell growth inhibition (spheroid 3D culture), AsPC-1
Assay type: cell-based
Settings: Homo sapiens, ASPC1, 144 h; KRAS G12D mutant-positive, 3D spheroid, six days, CellTiter-Glo 2.0; read-out: AsPC-1 IC50
Procedure: Test Example 3: Evaluation of Non-Anchorage-Dependent Cell Growth Inhibitory Activity on Human KRAS G12V Mutant-Positive Pancreatic Cancer Line PA-TU-8902, Human KRAS G12D Mutant-Positive Pancreatic Cancer Line AsPC-1 or Human KRAS G12C Mutant-Positive Pancreatic Cancer Line MIA PaCa-2 The non-anchorage-dependent cell growth inhibitory activities of subject compounds were evaluated by spheroid 3D cell culture. […]
pIC50: −log10 of the molar value.
pIC50 listing for selected compounds.

compound	study-system	pIC50
CO[C@@H](C)COc1nc(N2CCOCC2)c2cc(C3CC3)c(-c3c(C)c(F)cc4[nH]ncc34)c(OCc3ccc(-c4cn([C@H](C(=O)N5C[C@H](O)C[C@H]5C(=O)N[C@@H](CO)c5ccc(-c6scnc6C)cc5)C(C)C)nn4)cc3)c2n1 (atropisomer, axis not shown)	AsPC-1 cells	7.37
Cc1ncsc1-c1ccc([C@H](CO)NC(=O)[C@@H]2C[C@@H](O)CN2C(=O)[C@H](C(C)C)n2cc(-c3ccc(COc4c(-c5c(C)c(F)cc6[nH]ncc56)c(C5CC5)cc5c(NC6CN(c7ncccn7)C6)nc(OC6CCOCC6)nc45)cc3)nn2)cc1	AsPC-1 cells	6.90
CNCCNC(=O)N1CC(Oc2nc(OC[C@H](C)OC)nc3c(OCc4ccc(-c5cn([C@H](C(=O)N6C[C@H](O)C[C@H]6C(=O)N[C@@H](CO)c6ccc(-c7scnc7C)cc6)C(C)C)nn5)cc4)c(-c4c(C)c(F)cc5[nH]ncc45)c(C4CC4)cc23)C1 (atropisomer, axis not shown)	AsPC-1 cells	7.49
CO[C@@H](C)COc1nc(N[C@H]2C[C@H](OCCN(C)C)C2)c2cc(C3CC3)c(-c3c(C)c(F)cc4[nH]ncc34)c(OCc3ccc(-c4cn([C@H](C(=O)N5C[C@H](O)C[C@H]5C(=O)N[C@@H](CO)c5ccc(-c6scnc6C)cc5)C(C)C)nn4)cc3)c2n1 (atropisomer, axis not shown)	AsPC-1 cells	8.05
